target: UniProt:Q01727; test: Agonist activity at mouse MC1 receptor expressed in HEK-293 cells assessed as cAMP response measured after 2 hrs incubation by cAMP Alphascreen assay; assay type: functional, cell-based, HEK293
Sequence (Q01727 whole entry): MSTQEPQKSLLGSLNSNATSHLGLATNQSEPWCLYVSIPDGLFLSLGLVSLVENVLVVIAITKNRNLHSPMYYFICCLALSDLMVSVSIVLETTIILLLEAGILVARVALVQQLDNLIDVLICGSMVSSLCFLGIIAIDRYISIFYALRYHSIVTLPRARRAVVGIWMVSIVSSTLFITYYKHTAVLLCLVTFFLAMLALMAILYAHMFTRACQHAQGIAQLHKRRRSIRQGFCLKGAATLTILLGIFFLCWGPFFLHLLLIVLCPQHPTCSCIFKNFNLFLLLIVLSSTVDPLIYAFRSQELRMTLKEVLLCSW
Square brackets hold non-standard residues; d marks the D form. Peptide text beside a SMILES is read from it.
TEST READOUT: EC50 (µM)

For orientation, consider the following solved cases.
[
  {
    "MOLECULE": "CC(=O)N[C@@H](Cc1c[nH]cn1)C(=O)N[C@H](Cc1ccccc1)C(=O)N[C@@H](CCCNC(=N)N)C(=O)N[C@H](CC(N)=O)Cc1c[nH]c2ccccc12",
    "EC50, µM": 0.033
  },
  {
    "MOLECULE": "CC(=O)N[C@H](Cc1ccccc1)C(=O)N[C@@H](CCCN=C(N)N)C(=O)N[C@@H](Cc1c[nH]c2ccccc12)C(N)=O (Ac-[dF]-Arg-Trp-NH2)",
    "EC50, µM": 10
  },
  {
    "MOLECULE": "CC(=O)N[C@@H](Cc1c[nH]cn1)C(=O)N[C@@H](CC(=O)N[C@@H](CCCNC(=N)N)C(=O)N[C@@H](Cc1c[nH]c2ccccc12)C(N)=O)Cc1ccccc1",
    "EC50, µM": 7.03
  }
]

[P] CC(=O)N[C@@H](Cc1c[nH]cn1)C(=O)N[C@H](Cc1ccccc1)C(=O)N[C@@H](CCCNC(=N)N)CC(=O)N[C@@H](Cc1c[nH]c2ccccc12)C(N)=O
[Q] CC(=O)N[C@@H](Cc1c[nH]cn1)C(=O)N[C@H](CC(=O)N[C@@H](CCCNC(=N)N)C(=O)N[C@@H](Cc1c[nH]c2ccccc12)C(N)=O)Cc1ccccc1
Exam item: Which gives the smaller EC50 number: P or Q ? Field: selected label. Fill in the label of the entry you choose.
Marked response: P

This collection of values is drawn from ChEMBL document CHEMBL3580664.
